Biological target: CYP2C9 (Homo sapiens, UniProt P11712)
Sequence (P11712 whole entry): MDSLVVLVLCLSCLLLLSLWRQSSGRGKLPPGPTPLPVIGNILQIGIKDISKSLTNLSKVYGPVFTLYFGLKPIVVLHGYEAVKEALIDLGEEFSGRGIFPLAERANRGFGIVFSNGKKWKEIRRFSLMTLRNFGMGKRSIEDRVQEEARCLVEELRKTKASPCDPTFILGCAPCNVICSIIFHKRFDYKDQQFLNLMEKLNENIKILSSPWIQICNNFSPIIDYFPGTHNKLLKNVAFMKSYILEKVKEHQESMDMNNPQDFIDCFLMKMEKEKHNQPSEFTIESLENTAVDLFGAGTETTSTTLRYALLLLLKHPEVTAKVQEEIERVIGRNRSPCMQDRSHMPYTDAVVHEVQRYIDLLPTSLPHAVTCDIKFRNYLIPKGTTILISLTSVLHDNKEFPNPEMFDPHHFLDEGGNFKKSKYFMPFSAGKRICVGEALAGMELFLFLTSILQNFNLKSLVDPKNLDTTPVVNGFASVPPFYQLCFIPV
Assay: in vitro
Details: both, microsomes
endpoint label: inhibition at 40 min, 33.3 μM (%)

>>> assay_result("O=C(O)C(Oc1cccc(C(F)(F)F)c1)c1ccc(Cl)cc1 (single isomer, unassigned; (-)) [(−) halofenic acid]")
71

* * *

Molecular target: CYP2C19 (Homo sapiens, UniProt P33261)
Sequence (P33261 whole entry, canonical isoform): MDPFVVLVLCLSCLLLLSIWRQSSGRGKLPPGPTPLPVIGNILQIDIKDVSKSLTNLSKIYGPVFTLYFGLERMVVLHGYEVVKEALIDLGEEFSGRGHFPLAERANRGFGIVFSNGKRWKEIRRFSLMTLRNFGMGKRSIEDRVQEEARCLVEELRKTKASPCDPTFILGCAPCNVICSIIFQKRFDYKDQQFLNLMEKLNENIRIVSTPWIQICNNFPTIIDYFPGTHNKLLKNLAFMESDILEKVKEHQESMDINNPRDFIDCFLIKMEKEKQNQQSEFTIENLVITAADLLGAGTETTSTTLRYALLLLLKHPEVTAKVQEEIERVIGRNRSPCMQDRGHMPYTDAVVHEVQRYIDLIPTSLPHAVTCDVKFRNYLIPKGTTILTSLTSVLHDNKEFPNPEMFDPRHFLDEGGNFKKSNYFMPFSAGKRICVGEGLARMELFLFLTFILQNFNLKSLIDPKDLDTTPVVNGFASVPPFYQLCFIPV
Assay: Cytochrome P450 isoform inhibition in human hepatic microsomes, S-mephenytoin (Example 18)
Type: in vitro ADME
Conditions: both sexes, human, pooled human hepatic microsomes, probe S-mephenytoin 50 μM; test article 10 μM
endpoint label: inhibition at 30 min, 10 μM (%)

>>> assay_result("O=C(O)C(Oc1cccc(C(F)(F)F)c1)c1ccc(Cl)cc1 (single isomer, unassigned; (-)) [(−) halofenic acid]")
23

* * *

Target: CYP1A2 (Homo sapiens, UniProt P05177)
Sequence (P05177 whole entry): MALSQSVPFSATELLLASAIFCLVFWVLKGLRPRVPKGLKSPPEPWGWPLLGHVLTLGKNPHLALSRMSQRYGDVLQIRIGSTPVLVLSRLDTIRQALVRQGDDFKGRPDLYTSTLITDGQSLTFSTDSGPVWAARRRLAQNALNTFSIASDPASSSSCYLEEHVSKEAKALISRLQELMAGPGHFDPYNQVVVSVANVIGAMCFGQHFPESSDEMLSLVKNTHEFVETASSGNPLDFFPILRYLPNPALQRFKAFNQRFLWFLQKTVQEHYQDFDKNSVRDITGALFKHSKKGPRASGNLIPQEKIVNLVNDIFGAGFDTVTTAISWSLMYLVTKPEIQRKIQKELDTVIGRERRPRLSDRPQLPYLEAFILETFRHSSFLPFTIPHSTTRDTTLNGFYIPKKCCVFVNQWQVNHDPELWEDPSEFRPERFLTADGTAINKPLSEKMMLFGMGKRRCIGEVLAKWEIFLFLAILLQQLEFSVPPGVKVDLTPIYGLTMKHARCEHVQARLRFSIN
Experiment: in vitro
Conditions: both, microsomes
endpoint label: inhibition at 30 min, 33.3 μM (%)

>>> assay_result("O=C(O)C(Oc1cccc(C(F)(F)F)c1)c1ccc(Cl)cc1 (single isomer, unassigned; (-)) [(−) halofenic acid]")
-1

* * *

Target: CYP2E1 (Homo sapiens, UniProt P05181)
Sequence (P05181 whole entry): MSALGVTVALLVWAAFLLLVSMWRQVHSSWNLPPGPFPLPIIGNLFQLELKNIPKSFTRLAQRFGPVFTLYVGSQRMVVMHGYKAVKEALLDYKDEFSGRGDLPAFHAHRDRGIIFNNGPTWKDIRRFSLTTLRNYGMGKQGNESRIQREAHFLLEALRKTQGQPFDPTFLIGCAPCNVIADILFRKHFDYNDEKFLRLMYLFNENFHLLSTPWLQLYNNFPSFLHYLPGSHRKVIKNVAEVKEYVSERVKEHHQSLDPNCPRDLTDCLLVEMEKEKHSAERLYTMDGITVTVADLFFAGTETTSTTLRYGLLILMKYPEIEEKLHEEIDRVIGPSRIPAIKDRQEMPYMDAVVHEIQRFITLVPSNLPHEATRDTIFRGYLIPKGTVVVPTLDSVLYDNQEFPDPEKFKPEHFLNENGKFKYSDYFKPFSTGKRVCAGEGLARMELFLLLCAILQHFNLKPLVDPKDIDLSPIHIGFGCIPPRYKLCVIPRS
Experiment: in vitro
Details: both, microsomes
endpoint label: inhibition at 20 min, 3.3 μM (%)

>>> assay_result("O=C(O)C(Oc1cccc(C(F)(F)F)c1)c1ccc(Cl)cc1 (single isomer, unassigned; (-)) [(−) halofenic acid]")
3

* * *

Target: CYP2A6 (Homo sapiens)
Sequence (P11509 1-494): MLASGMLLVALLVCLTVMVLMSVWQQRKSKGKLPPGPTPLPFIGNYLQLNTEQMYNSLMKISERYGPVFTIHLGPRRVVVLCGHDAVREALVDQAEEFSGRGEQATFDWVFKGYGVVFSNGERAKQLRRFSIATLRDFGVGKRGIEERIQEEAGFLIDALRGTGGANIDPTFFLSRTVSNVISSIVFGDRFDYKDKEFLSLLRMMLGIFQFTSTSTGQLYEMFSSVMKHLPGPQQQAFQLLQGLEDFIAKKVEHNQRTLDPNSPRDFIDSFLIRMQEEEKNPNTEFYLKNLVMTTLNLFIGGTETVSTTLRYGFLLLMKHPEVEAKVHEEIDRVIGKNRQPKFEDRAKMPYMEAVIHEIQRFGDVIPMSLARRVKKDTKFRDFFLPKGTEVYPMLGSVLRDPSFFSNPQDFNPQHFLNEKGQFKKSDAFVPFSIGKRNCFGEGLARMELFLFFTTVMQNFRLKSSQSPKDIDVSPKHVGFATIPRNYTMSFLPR
Assay: in vitro
Details: both, microsomes
endpoint label: inhibition at 20 min, 33.3 μM (%)

>>> assay_result("O=C(O)C(Oc1cccc(C(F)(F)F)c1)c1ccc(Cl)cc1 (single isomer, unassigned; (-)) [(−) halofenic acid]")
-1

* * *

Assay: Plasma hydrolysis of (−) CPTA prodrug esters in human plasma (Example 21)
Assay type: in vitro ADME
Conditions: human plasma (heparinized, pooled), 125 or 250 μM, 37° C., hydrolysis to (−) CPTA; read-out: Plasma T1/2 (converted)
Experimental: This example illustrates the plasma hydrolysis of various prodrug esters of the (S)-enantiomer of CPTA at physiological conditions. Hydrolysis was monitored and analyzed by HPLC. The hydrolytic product was identified by comparison to authentic (−) CPTA and the hydrolytic rates were calculated. [drawing 83] […] Prepare 31.25 or 62.5 mM prodrug stock solutions in 100% DMSO. […] The relative concentrations of MBX-compounds are determined by HPLC methods. […]
half-life by entry:
endpoint label: half-life

>>> assay_result("O=C(OCc1ccccc1)C(Oc1cccc(C(F)(F)F)c1)c1ccc(Cl)cc1 (single isomer, unassigned; (-))")
"6.3 h"
>>> assay_result("O=C(OCc1cccnc1)C(Oc1cccc(C(F)(F)F)c1)c1ccc(Cl)cc1 (single isomer, unassigned)")
"< 1 h"
>>> assay_result("CS(=O)(=O)NCCOC(=O)C(Oc1cccc(C(F)(F)F)c1)c1ccc(Cl)cc1 (single isomer, unassigned)")
"< 1 h"
>>> assay_result("CN(C)C(=O)COC(=O)C(Oc1cccc(C(F)(F)F)c1)c1ccc(Cl)cc1 (single isomer, unassigned)")
"< 0.5 h"
>>> assay_result("CCNC(=O)NCCOC(=O)C(Oc1cccc(C(F)(F)F)c1)c1ccc(Cl)cc1 (single isomer, unassigned)")
"< 1 h"
>>> assay_result("COC(=O)C1CCCN1C(=O)COC(=O)C(Oc1cccc(C(F)(F)F)c1)c1ccc(Cl)cc1 (single isomer, unassigned)")
"< 0.5 h"
